- subject_of_test: ATPase family AAA domain-containing protein 5 (Homo sapiens) (UniProt Q96QE3)
- Sequence (Q96QE3 whole entry, looked up, the tested form may be a part): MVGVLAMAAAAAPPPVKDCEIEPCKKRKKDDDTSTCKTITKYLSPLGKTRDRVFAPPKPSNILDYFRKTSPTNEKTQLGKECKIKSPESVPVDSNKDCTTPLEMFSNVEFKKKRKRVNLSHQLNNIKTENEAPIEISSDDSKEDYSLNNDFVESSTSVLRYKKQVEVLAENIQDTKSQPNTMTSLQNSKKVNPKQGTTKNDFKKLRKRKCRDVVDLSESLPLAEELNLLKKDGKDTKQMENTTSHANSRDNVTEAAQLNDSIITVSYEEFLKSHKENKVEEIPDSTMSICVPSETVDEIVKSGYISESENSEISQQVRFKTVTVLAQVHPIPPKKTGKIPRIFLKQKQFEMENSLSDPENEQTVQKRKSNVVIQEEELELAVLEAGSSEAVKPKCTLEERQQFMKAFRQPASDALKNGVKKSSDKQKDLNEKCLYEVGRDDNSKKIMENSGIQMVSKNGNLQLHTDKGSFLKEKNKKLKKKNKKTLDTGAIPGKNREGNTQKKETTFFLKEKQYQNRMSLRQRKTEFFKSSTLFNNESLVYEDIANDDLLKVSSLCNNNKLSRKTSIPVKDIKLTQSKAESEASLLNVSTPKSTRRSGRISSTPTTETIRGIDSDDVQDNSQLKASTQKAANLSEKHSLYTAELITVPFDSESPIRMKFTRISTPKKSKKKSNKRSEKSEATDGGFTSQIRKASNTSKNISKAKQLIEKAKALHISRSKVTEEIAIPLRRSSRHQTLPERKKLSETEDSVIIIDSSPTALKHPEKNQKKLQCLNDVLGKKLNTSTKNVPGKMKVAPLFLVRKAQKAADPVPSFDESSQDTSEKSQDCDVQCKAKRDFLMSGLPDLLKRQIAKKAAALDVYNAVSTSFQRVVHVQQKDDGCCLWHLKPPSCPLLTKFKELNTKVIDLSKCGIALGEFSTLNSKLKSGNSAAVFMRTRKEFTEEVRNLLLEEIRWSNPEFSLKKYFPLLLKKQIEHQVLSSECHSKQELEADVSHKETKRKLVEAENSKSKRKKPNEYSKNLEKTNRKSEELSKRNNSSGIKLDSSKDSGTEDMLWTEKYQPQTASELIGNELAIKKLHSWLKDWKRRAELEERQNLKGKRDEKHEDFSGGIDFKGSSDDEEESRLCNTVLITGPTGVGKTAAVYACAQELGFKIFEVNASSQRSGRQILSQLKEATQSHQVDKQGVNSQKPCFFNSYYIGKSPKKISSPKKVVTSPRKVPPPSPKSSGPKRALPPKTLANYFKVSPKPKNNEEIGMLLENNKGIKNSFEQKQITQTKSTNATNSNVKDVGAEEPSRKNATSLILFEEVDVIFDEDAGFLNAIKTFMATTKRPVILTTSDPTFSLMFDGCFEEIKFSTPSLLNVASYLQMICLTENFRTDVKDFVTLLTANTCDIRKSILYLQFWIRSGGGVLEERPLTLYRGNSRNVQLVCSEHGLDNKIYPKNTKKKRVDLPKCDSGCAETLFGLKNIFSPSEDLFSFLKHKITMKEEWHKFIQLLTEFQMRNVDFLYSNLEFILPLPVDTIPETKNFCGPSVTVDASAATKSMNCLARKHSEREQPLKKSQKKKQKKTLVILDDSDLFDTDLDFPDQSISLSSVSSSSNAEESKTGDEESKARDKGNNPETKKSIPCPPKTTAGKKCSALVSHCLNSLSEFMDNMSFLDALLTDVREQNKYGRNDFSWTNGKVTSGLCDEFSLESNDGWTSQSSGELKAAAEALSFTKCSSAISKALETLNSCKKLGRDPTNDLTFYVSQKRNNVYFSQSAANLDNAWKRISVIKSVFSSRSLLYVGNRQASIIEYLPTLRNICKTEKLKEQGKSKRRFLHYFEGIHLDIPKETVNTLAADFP
- assay_info: Validation screen for small molecules that inhibit ELG1-dependent DNA repair in human embryonic kidney (HEK293T) cells expressing luciferase-tagged ELG1 (AID 493107);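 also: cells co-treated with the DNA-damaging agent 5-fluorouridine alongside compound; inhibitors lower the ELG1-luciferase luminescence signal; nearly all actives have a fitted effect of over 70% in size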
- test_conditions: HEK293T ELG1-luciferase level, luminescence, 5-fluorouridine co-treatment, 16 h; series mostly up to 46.1 µM
- Source text: NIH Molecular Libraries Probe Production Network [MLPCN] NIH Chemical Genomics Center [NCGC] Assay Provider: Kyungjae Myung, NHGRI, NIH Keywords: MLPCN, qHTS, NCGC, genotoxicity, cancer Cancer cells divide rapidly compared to normal cells in the body. During cell division, cancer cells need to duplicate their genome by DNA replication. The failure of genome duplication leads to cancer cells' death. […] With this in mind, we developed a quantitative high-throughput ELG1-luciferase reporter gene assay. […]
Records with an inconclusive call do not appear. Active and inactive are the calls of the source. Calls follow the shape of the dose curve; as a rule, active = well fitted inhibition curve with a large enough effect; inconclusive = small, poorly fitted or top-dose-only effect, or effect the other way; inactive = flat fitted curve, though single readings scatter.
Outcomes you can answer with include only these: true (active), false (inactive)

• N[C@@H](CCCC(=O)O)C(=O)O = false
• Nc1ccc(-c2nc3ccc(-c4nc5ccc(N)cc5[nH]4)cc3[nH]2)cc1 = false
• NCCCNCCCCNCCCN = false
• O=C(O)CCC(=O)N1CCCC1C(=O)O (centres undefined) = false
• COc1cc(/C=C(\C#N)C(=O)c2ccc(O)c(O)c2)cc(I)c1O = false
• CCCc1c(OCCCOc2ccc(OCC(=O)O)cc2)ccc(C(C)=O)c1O = false
• Cc1cccc(C2CN(C)CCc3c2cc(O)c(O)c3Cl)c1 (centres undefined) = false
• CN(C)CCCc1cc(C(=O)Nc2ccc(-c3ccncc3)cc2)ccc1O = false
• CCN(CC)CCOC(=O)c1cc(Cl)c(N)cc1OC = false
• NC(N)=N[C@@H](CCC(=O)O)C(=O)O = false

Query: Hi, do you know how N=S(=O)(O)Cc1noc2ccccc12 came out in this test?
Reply: false

Query: Quick one: CSc1nc(N)c2ncn([C@@H]3O[C@H](COP(=O)(O)OP(=O)(O)O)C(O)[C@H]3O)c2n1 (some centres undefined)
Reply: false

Query: Quick one: COc1ccc2c(c1)CCC1C2CC[C@@]2(C)C1CC[C@@H]2NCCCCCCN1C(=O)C=CC1=O (some centres undefined)
Reply: false

----------
- subject_of_test: Flap endonuclease 1 (Homo sapiens)
- assay_info: qHTS Validation Assay for the Inhibitors of Human Flap endonuclease 1 (FEN1) (AID 488816)
- test_conditions: FEN1 nuclease activity, fluorogenic DNA substrate; series mostly up to 57.1 µM
The source made the active and inactive calls. Calls come from the whole dose curve; as a rule, active = well fitted inhibition curve with a large enough effect; inconclusive = small, poorly fitted or top-dose-only effect; inactive = flat fitted curve, though single readings scatter.
Outcomes you can answer with include only these: 1 (yes) for active, 0 (no) for inactive

• Cc1cccc(C)c1OCC(N)C(C)C (stereo unspecified) = 0 (no)
• Nc1nc2[nH]c(=O)cnc2c(=O)[nH]1 = 0 (no)
• COc1ccc(NC(=O)c2ccc(-c3ccc(-c4noc(C)n4)cc3C)cc2)cc1N1CCN(C)CC1 = 0 (no)
• CC(C)Cn1c(=O)n(C)c(=O)c2[nH]cnc21 = 0 (no)
• N[C@@H](CS(=O)O)C(=O)O = 0 (no)

Query: Hi, do you know how Cc1cc2c(cc1Cl)N(C(=O)Nc1ccnc3ccccc13)CC2 came out in this test?
Reply: 0 (no)

Query: Quick one: CN1CCc2cc(Cl)c(O)cc2[C@@H](c2ccccc2)C1
Reply: 0 (no)

Query: Quick one: O=C(O)c1cc2cc(F)ccc2[nH]1
Reply: 0 (no)

Query: Quick one: NC1CONC1=O (stereo unspecified)
Reply: 0 (no)

Query: Quick one: COc1ccccc1N1CCN(CCN(C(=O)c2ccc(F)cc2)c2ccccn2)CC1
Reply: 0 (no)

Query: Quick one: Cc1ccc2c(c1)C(N1CCN(C)CC1)=Nc1cccnc1N2
Reply: 0 (no)

Query: Quick one: S=C(S)N1CCCC1
Reply: 0 (no)
